# system: Autoinducer 2-binding periplasmic protein LuxP (Vibrio harveyi, UniProt P54300)
# Sequence (P54300 whole entry): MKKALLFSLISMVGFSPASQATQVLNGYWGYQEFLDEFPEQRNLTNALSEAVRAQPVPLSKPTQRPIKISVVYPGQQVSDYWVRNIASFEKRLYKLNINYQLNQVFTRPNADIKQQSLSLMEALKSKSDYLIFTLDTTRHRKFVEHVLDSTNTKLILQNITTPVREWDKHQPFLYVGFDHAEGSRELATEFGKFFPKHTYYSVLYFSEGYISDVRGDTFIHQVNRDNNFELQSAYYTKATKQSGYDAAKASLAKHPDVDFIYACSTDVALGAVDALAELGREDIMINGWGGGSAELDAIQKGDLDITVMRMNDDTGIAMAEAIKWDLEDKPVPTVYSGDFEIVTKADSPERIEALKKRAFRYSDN
# testName: Antagonist activity at LuxP receptor in Vibrio harveyi MM32 assessed as inhibition of autoinducer-2-mediated quorum sensing after 3 to 4 hrs
pIC50: −log10 of the molar value.
measuredEndpoint: pIC50

{"columns": ["smilesRecord", "recordedResult"],
 "data": [
  ["O=Cc1cc(O)c(O)c(O)c1", 4.92],
  ["O=Cc1ccc(O)c(O)c1O", 5.40],
  ["O=C(c1ccccc1)c1ccc(O)c(O)c1O", 5.40],
  ["O=C(O)c1ccc(O)c(O)c1O", 4.21],
  ["Oc1ccccc1O", 4.23],
  ["Oc1cccc(O)c1O", 5.70],
  ["CC(=O)c1ccc(O)c(O)c1O", 4.68],
  ["NCCc1cc(O)c(O)c(O)c1", 4.66],
  ["O=C(O)c1cc(O)c(O)c(O)c1", 4.30],
  ["O=c1ccc2ccc(O)c(O)c2o1", 4.92]
]}
